Hello, the source for this data is the Immune Epitope Database (IEDB), in case you need it.

Some sequences, each annotated with its measured pIC50.
Molecular target: HLA-A*02:01
Experiment: IEDB peptide-MHC binding, purified MHC/competitive/radioactivity; bounds were set here for any values at or beyond the usual limits of such assays
Details: source organism: Vaccinia virus WR
pIC50: −log10 of the molar value.
Value Type: pIC50

- KIADDRIVV: 8.18
- LLEAVYGNI: 6.06
- FIYLLFASM: 6.76
- KLLLWFNYL: 8.70
- TLWAIINTI: 8.03
- QLEHGSCQPV: 7.80
- SLTQVKELGI: 6.68
- KISVEKIKQT: 5.33
- KTANNYETI: 5.65
- EIMDKEQLL: 5.40
- VILFIMFMLI: 6.42
- ILFNLSKFLL: 8.40
- SIRFHIKEL: 5.81
- AAIDRQVSV: 5.83
- MIDDSIEGI: 6.68
- EATYHIIIVA: 5.67
- FTDASTVASA: 6.10
- HQWDIDSAI: 6.00
- YISELYNKPL: 6.20
- VLITWLIDYV: 9.10
- LMELPVKTDI: 5.88
